# Target Entity: human GPR40 (Homo sapiens, UniProt O14842)
# Construct: expressed in transfected cells
# Sequence (O14842 whole entry): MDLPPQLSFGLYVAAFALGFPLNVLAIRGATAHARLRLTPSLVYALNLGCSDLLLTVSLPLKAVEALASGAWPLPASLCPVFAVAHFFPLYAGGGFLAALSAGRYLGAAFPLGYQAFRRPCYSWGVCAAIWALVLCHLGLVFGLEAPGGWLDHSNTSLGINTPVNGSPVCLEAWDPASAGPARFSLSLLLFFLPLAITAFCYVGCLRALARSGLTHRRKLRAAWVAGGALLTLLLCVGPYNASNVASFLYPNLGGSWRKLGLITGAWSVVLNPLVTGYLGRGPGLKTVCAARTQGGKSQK
# Method Summary: Inositol Phosphate Turnover (IP1) Assay
# Assay type: cell-based
# Particulars: HEK cells stably expressing human GPR40; CisBio IP-One kit; 60 minutes at 37 degrees; read-out: Human IP1 EC50
Field 'label' (enum: met / not met). Set to met when EC50 is strictly under 3 nM; else not met.

| Compound | Classification |
| --- | --- |
| C[C@H](C(=O)O)[C@H](c1ccc2c(c1)OC1(CC2)CC(Nc2ncccc2C(F)(F)F)C1)C1CC1 (single isomer, unassigned) [Example 87] | not met |
| COc1cc(C(C)N2CCC3(CCc4ccc([C@H](C5CC5)[C@H](C)C(=O)O)cc4O3)CC2)c(C(F)(F)F)cn1 (single isomer, unassigned) [Example 106] | not met |
| CC(c1cc(C(F)(F)F)ccc1C1CC1)N1CCC2(CCc3ccc([C@H](C4CC4)[C@H](C)C(=O)O)c(F)c3O2)CC1 (single isomer, unassigned) [Example 11] | met |
| CC(c1cc(Cl)ccc1OC(F)(F)F)N1CCC2(CCc3ccc([C@H](C4CC4)[C@H](C)C(=O)O)cc3O2)CC1 (some centres unmarked) [Example 133] | not met |
| C[C@H](NC1CC2(CCc3ccc([C@H](C4CC4)[C@H](C)C(=O)O)cc3O2)C1)c1cc(C(F)(F)F)ccc1C(F)(F)F (single isomer, unassigned) [Example 94] | met |

---

# Target Entity: human GPR40 (Homo sapiens, UniProt O14842)
# Construct: expressed in transfected cells
# Method Summary: Inositol Phosphate Turnover (IP1) Assay
# Format: cell-based
# Particulars: HEK cells stably expressing human GPR40; CisBio IP-One kit; 60 minutes at 37 degrees; read-out: Human IP1 EC50
pEC50: −log10 of the molar value.
Parameter: pEC50

| Compound | Target Entity | Parameter | Numeric Result |
| --- | --- | --- | --- |
| C[C@H](C(=O)O)[C@H](c1ccc2c(c1F)OC1(CC2)CCN(Cc2cc(Cl)ccc2OC(F)F)CC1)C1CC1 | human GPR40 (Homo sapiens, UniProt O14842) | pEC50 | 7.87 |
| Cc1nocc1-c1ccc(OC(F)(F)F)c(C(C)N2CCC3(CCc4ccc([C@H](C5CC5)[C@H](C)C(=O)O)cc4O3)CC2)c1 (single isomer, unassigned) [Example 115] | human GPR40 (Homo sapiens, UniProt O14842) | pEC50 | 7.38 |
| C[C@H](C(=O)O)[C@H](c1ccc2c(c1)OC1(CC2)[C@@H]2CC[C@H]1CN([C@@H](C)c1cc(F)ccc1C(F)(F)F)C2)C1CC1 (single isomer, unassigned) [Example 82] | human GPR40 (Homo sapiens, UniProt O14842) | pEC50 | 6.60 |
| CC(c1cc(Cl)ccc1C(F)(F)F)N1CCC2(CCc3ccc([C@H](C4CC4)[C@H](C)C(=O)O)cc3O2)CC1 (mixture of isomers) | human GPR40 (Homo sapiens, UniProt O14842) | pEC50 | 8.57 |
